# Assayed Target: Phosphodiesterase 4 (Cavia porcellus)
# Assay Protocol: Inhibitory activity against phosphodiesterase 4 isolated from guinea pig ventricular tissue
Please use 1.0 for IC50 under 2 µM and 0.0 for everything else, ties included.

- Cpd Smiles: "CCc1nc(NCc2ccccc2)c2sccc2n1"
  Group Label: 0.0
- Cpd Smiles: "CCCCc1nc(N(Cc2ccccc2)Cc2ccccc2)c2sccc2n1"
  Group Label: 0.0
- Cpd Smiles: "CCCCc1nc(NCc2ccncc2)c2sccc2n1"
  Group Label: 1.0
- Cpd Smiles: "CCCCc1nc(NCc2ccc(-c3ccccc3)cc2)c2sccc2n1"
  Group Label: 0.0
- Cpd Smiles: "CCCCc1nc(NCc2ccc([N+](=O)[O-])cc2)c2sccc2n1"
  Group Label: 0.0
- Cpd Smiles: "CCCc1nc2ccccc2n(Cc2ccccc2)c1=O"
  Group Label: 1.0
- Cpd Smiles: "CCCCc1nc2ccccc2c(=O)n1Cc1ccccc1"
  Group Label: 0.0
- Cpd Smiles: "CCCCc1nc(NC(=O)c2ccccc2)c2sccc2n1"
  Group Label: 0.0
- Cpd Smiles: "CCCCc1nc2ncccc2c(=O)n1Cc1ccccc1"
  Group Label: 0.0
- Cpd Smiles: "c1ccc(CNc2ncnc3ccsc23)cc1"
  Group Label: 0.0
- Cpd Smiles: "c1ccc(CNc2nc(-c3ccccc3)nc3ccsc23)cc1"
  Group Label: 0.0
- Cpd Smiles: "CCCc1nc2cccnc2n(Cc2ccccc2)c1=O"
  Group Label: 1.0
- Cpd Smiles: "c1ccc(CNc2nc(Cc3ccccc3)nc3ccsc23)cc1"
  Group Label: 1.0
- Cpd Smiles: "CCCCc1nc(NCc2ccccc2)c2nccnc2n1"
  Group Label: 0.0
- Cpd Smiles: "CCCCc1nc(N(CCC)Cc2ccccc2)c2sccc2n1"
  Group Label: 0.0
- Cpd Smiles: "c1ccc(CNc2[nH]c(Cc3ccccc3)nc3ncnc2-3)cc1"
  Group Label: 0.0
- Cpd Smiles: "c1ccc(CNc2nc(N3CCCCC3)nc3ccsc23)cc1"
  Group Label: 0.0
- Cpd Smiles: "CCCCc1nc2ccsc2c(=O)n1Cc1ccccc1"
  Group Label: 0.0

----------
# Assayed Target: Phosphodiesterase 3 (Cavia porcellus)
# Assay Protocol: Inhibitory activity against cGMP inhibited Phosphodiesterase 3, isolated from guinea pig ventricular tissue
The reader will find reported IC50 values listed item by item below.

- Cpd Smiles: "CCCCc1nc2ccsc2c(=O)n1Cc1ccccc1"
  Sign Qualifier: "="
  IC50 / µM: 43
- Cpd Smiles: "CCCCc1nc(NCc2ccncc2)c2sccc2n1"
  Sign Qualifier: "="
  IC50 / µM: 29
- Cpd Smiles: "CCCc1nc2ccccc2n(Cc2ccccc2)c1=O"
  Sign Qualifier: ">"
  IC50 / µM: 200
- Cpd Smiles: "CCCCc1nc(NCc2ccc([N+](=O)[O-])cc2)c2sccc2n1"
  Sign Qualifier: "="
  IC50 / µM: 8.5
- Cpd Smiles: "CCCCc1nc(NCc2ccccc2)c2nccnc2n1"
  Sign Qualifier: "="
  IC50 / µM: 45
- Cpd Smiles: "c1ccc(CNc2nc(N3CCCCC3)nc3ccsc23)cc1"
  Sign Qualifier: ">"
  IC50 / µM: 200

----------
# IC50 per entry
# Assayed Target: Phosphodiesterase 3 (Cavia porcellus)
# Assay Protocol: Inhibitory activity against cGMP inhibited Phosphodiesterase 3, isolated from guinea pig ventricular tissue

- Cpd Smiles: "CCCCc1nc(N(CCC)Cc2ccccc2)c2sccc2n1"
  IC50: "> 200 µM"
- Cpd Smiles: "CCCc1nc2cccnc2n(Cc2ccccc2)c1=O"
  IC50: "> 200 µM"
- Cpd Smiles: "CCCCc1nc2ncccc2c(=O)n1Cc1ccccc1"
  IC50: "> 200 µM"
